Target: PD-L1 (Homo sapiens, UniProt Q9NZQ7)
Construct: determine if they can specifically dimerize the extracellular domains of PD-L1
Sequence (Q9NZQ7 19-238 limits assumed): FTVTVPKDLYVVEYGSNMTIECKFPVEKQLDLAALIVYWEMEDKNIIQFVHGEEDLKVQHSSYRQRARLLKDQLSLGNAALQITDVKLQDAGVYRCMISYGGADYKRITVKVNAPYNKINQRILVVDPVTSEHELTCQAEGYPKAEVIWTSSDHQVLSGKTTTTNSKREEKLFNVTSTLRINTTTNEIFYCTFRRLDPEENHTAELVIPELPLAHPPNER
Sequence (Q9NZQ7 19-238 limits assumed): as above
Experiment: PD-L1/PD-L1 dimerization biochemical protein-protein interaction assay (ALPHA)
Settings: 0.5 nM His tagged PD-L1 and 0.5 nM FLAG tagged PD-L1; compound induced dimerization; read-out: AC50 PDL1 Dimer 1 nM
PROPERTY: AC50 (nM)

[[record]]
smiles_repr = "Cc1c(COc2cc(OCCCC#N)c(CN[C@@](C)(CO)C(=O)O)cc2Cl)cccc1-c1cccc(-c2ccc3c(c2)CNCC3)c1C"
target = "PD-L1 (Homo sapiens, UniProt Q9NZQ7)"
property = "AC50"
quantity_unit = "nM"
test_result = 63.8


A. COc1nc(-c2cccc(-c3cccc(-c4nc5c(s4)CCNC5)c3Cl)c2Cl)ccc1CNC[C@@H]1CCC(=O)N1
B. Cc1c(COc2cc(OCc3cncc(C#N)c3)c(CNC[C@@H](O)CC(=O)O)cc2Cl)cccc1-c1cccc(-c2ccc3c(c2)NC(=O)CNC3)c1C
Query: Would you let me know which has the greater AC50 value, A or B ? Field: selected label. Fill in the label of the entry you choose.
Reply: B
